Where do the numbers come from? From patent US3989746A.

Tested on: male mice
Experiment: in vivo
Settings: 3 g/kg oral, 7 days
Property name: Number of Dead Mice/Number of Mice Tested

{"Smiles record": "CCc1ccc(Nc2ccccc2C(=O)O)c2ccccc12", "Recorded measurement": "4 /10"}
{"Smiles record": "O=C(O)c1ccccc1Nc1c(Cl)ccc2ccccc12", "Recorded measurement": "4 / 5"}
{"Smiles record": "O=C(O)c1ccccc1Nc1c(F)ccc2ccccc12", "Recorded measurement": "5 / 5"}
{"Smiles record": "Cc1cc(Nc2ccccc2C(=O)O)c2ccccc2c1C", "Recorded measurement": "5 / 5"}
{"Smiles record": "Cc1cc(Nc2ccccc2C(=O)O)c2ccccc2c1", "Recorded measurement": "5 / 5"}
{"Smiles record": "CCCCc1ccc2ccccc2c1Nc1ccccc1C(=O)O", "Recorded measurement": "0 /10"}
